Data credit: ChEMBL document CHEMBL1134326

tested on: Plasmodium falciparum; experiment: Antimalarial activity against Plasmodium falciparum; assay type: functional, organism-based
Attribute: EC50
Report only the number, with the unit nM understood.

C[C@@H]1CC[C@H]2C(CCC(=O)c3ccccc3)C(=O)O[C@@H]3O[C@]4(C)CC[C@@H]1C32OO4 (some centres undefined)
12.8
C[C@@H]1CC[C@H]2[C@H](Cc3cccc(F)c3)C(=O)O[C@@H]3O[C@]4(C)CC[C@@H]1[C@]32OO4
18.2
CC1CCC2C(CCC(=O)c3ccc[nH]3)C(=O)OC3OC4(C)CCC1C32OO4 (centres undefined)
8.8

Per the records, this compound ( CCCCC1(CC2C(=O)OC3OC4(C)CCC5C(C)CCC2C35OO4)C(=O)OC2OC3(C)CCC4C(C)CCC1C24OO3 (centres undefined) ) has EC50 equal to 4.3

---

system: Plasmodium falciparum; assay: Antimalarial activity against Plasmodium falciparum; assay type: functional, organism-based
Entries whose EC50 is below 10 nM take Condition met; entries at or above 10 nM take Condition not met.

Worked cases, answers included:
CCCCCC[C@H]1C(=O)O[C@@H]2O[C@]3(C)CC[C@H]4[C@H](C)CC[C@@H]1[C@@]24OO3
Condition not met
CCCCC[C@@H]1C(=O)O[C@@H]2O[C@]3(C)CC[C@H]4[C@H](C)CC[C@@H]1[C@@]24OO3
Condition not met
CCCCCC1(CC2C(=O)OC3OC4(C)CCC5C(C)CCC2C35OO4)C(=O)OC2OC3(C)CCC4C(C)CCC1C24OO3 (configuration not stated)
Condition met
C[C@@H]1CC[C@H]2[C@@H](Cc3ccc(F)cc3)C(=O)O[C@@H]3O[C@]4(C)CC[C@@H]1[C@]32OO4
Condition met
CC1CCC2C(CSCCSCC3C(=O)OC4OC5(C)CCC6C(C)CCC3C46OO5)C(=O)OC3OC4(C)CCC1C32OO4 (configuration not stated)
Condition met
CC1CCC2C(CSCCCCSCC3C(=O)OC4OC5(C)CCC6C(C)CCC3C46OO5)C(=O)OC3OC4(C)CCC1C32OO4 (configuration not stated)
Condition met

Now turn to the next molecule.
Field: below-cutoff. Rule: recorded EC50 strictly less than 10 nM. Subject: CC1CCC2C(CC3(CCCCCCCC4(CC5C(=O)OC6OC7(C)CCC8C(C)CCC5C68OO7)C(=O)OC5OC6(C)CCC7C(C)CCC4C57OO6)C(=O)OC4OC5(C)CCC6C(C)CCC3C46OO5)C(=O)OC3OC4(C)CCC1C32OO4 (configuration not stated)
Condition not met

---

tested on: Plasmodium falciparum; experiment: Antimalarial activity against Plasmodium falciparum; format: functional, organism-based
parameter: pEC50
The scale used: pEC50 is minus the common logarithm of the concentration in molar units.

Guide cases for pEC50, answers given:
CCCCC[C@H]1C(=O)O[C@@H]2O[C@]3(C)CC[C@H]4[C@H](C)CC[C@@H]1[C@@]24OO3
8.05
CCN(CC)C(=S)SC(CC1C(=O)O[C@@H]2O[C@]3(C)CC[C@H]4[C@H](C)CC[C@@H]1C24OO3)SC(=S)N(CC)CC (stereo partly drawn)
8.72

Here is another molecule to look at.
Per the records, this molecule ( C[C@@H]1CC[C@H]2[C@H](CCCCCCC[C@H]3C(=O)O[C@@H]4O[C@@]5(C)CC[C@H]6[C@H](C)CC[C@@H]3[C@@]46OO5)C(=O)O[C@@H]3O[C@@]4(C)CC[C@@H]1[C@]32OO4 ) has pEC50 equal to 9.04
